Assay: basal 3T3-L1 adipocyte mitochondrial potential changes, profiling panel, cell-based, JC-1 fluorescence, 3T3-L1 adipocytes, 24 h, 100 nL compound (AID 1168); also: test concentration not given here
Settings: JC-1 mitochondrial fluorescence, higher = more signal, called active from +8 up or from −8 down
# label = 1 (yes) if z-score >= 0.1 else 0 (no)

For orientation, consider the following solved cases.
COc1ccc([Si](C)(C)[C@@H]2[C@@H](CCO)O[C@]3(C(=O)N(Cc4cccc(N5C(=O)c6ccccc6Oc6ccccc65)c4)c4ccccc43)[C@H]2C)cc1; 1 (yes)
Cc1ccc(S[C@]2(C(=O)NC(C)C)CC(=O)N(C3Cc4ccccc4C3)[C@@H]2c2ccc(CO)cc2I)cc1; 0 (no)
CC(C)(C)OC(=O)CC[C@]1(C(=O)NCCN2CCOCC2)N=C(c2ccc(OCCCO)cc2)O[C@H]1c1ccccc1; 1 (yes)

**Q:** Reported z-score reaches at least 0.1 for CON(C)C(=O)C=C1C[C@@H](c2cccc(Cl)c2)O[C@@H](c2cccc(Cl)c2)O1 ?
**A:** 1 (yes)

**Q:** Reported z-score reaches at least 0.1 for C=CC[C@@]1(C(=O)N2CCCCC2)N=C(c2ccc(OCCCO)cc2)O[C@@H]1c1ccccc1 ?
**A:** 0 (no)

**Q:** Reported z-score reaches at least 0.1 for CCOC(=O)C[C@H]1[C@H](OC(=O)Cc2ccc3c(c2)OCO3)[C@@H](NC(=O)Cc2ccc(OC)cc2)c2cc(OCCCO)ccc2N1C(=O)c1ccccc1 ?
**A:** 0 (no)

**Q:** Reported z-score reaches at least 0.1 for CC(C)CN1C(=O)[C@@]2(c3ccc([N+](=O)[O-])cc3)CC(=O)N(CC34CC5CC(CC(C5)C3)C4)[C@@H]2c2ccc(CO)cc21 ?
**A:** 0 (no)

* * *

Assay: E. coli DRC41 culture turbidity changes, primary screen, E. coli filamentation inducer project, strain DRC41, OD650, 48 h (AID 1152);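 also: E. coli MC1000 strain DRC41 lacking acrAB efflux pump and sulA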
Settings: E. coli DRC41 (acrAB sulA), higher = more signal, called active from +8 up or from −8 down
QUANTITY KIND: z-score
Respond using a number only.

Known results for compounds:
COCCCNC(=O)[C@]1(CCC(=O)OC(C)(C)C)N=C(c2ccc(OCCCO)cc2)O[C@@H]1c1ccccc1; 0.134
C=CC[C@@]12N=C(c3ccc(OCCCO)cc3)O[C@@H]1c1ccccc1N(CCS(=O)(=O)c1ccccc1)C2=O; -0.309
C=C(C(=O)CC[C@H](OC(=O)c1cccnc1)c1ccc(CO)o1)C(C)C; -0.92

We now examine a further compound.
The recorded z-score for C=CCN1C(=O)[C@@]2(CCC(=O)OC(C)(C)C)N=C(c3ccc(OCCCO)cc3)O[C@H]2c2ccccc21 is 0.46

* * *

Biological target: Luciferin 4-monooxygenase (Photinus pyralis) (UniProt P08659)
Sequence (P08659 whole entry, looked up): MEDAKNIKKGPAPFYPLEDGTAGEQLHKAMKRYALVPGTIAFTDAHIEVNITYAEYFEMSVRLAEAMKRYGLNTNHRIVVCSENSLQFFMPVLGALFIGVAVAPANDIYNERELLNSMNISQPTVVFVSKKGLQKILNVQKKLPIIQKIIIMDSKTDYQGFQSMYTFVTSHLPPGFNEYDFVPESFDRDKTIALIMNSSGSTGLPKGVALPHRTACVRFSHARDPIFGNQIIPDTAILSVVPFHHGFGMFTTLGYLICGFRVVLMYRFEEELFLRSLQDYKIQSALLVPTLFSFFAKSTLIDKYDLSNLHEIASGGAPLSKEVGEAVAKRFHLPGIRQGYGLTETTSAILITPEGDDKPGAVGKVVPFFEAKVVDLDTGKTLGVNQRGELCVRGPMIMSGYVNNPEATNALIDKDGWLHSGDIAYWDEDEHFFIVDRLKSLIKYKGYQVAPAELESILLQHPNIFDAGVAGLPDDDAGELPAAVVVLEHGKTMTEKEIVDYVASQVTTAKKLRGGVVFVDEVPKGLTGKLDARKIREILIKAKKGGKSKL
Assay: firefly luciferase enzyme inhibitors, primary screen, biochemical, luminescence, purified enzyme, 2006 set (AID 1141);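 also: cell-free assay with purified firefly luciferase at 100 ng per well in PBS; test concentration not given here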
Conditions: SteadyGlo luminescence, 30 min, higher = more signal, called active from +8 up or from −8 down
# label = t if z-score >= -1 else f

O=C1O[C@@H](c2ccccc2)[C@@H](c2ccccc2)N2[C@@H](c3ccc(O)cc3)[C@]3(C(=O)Nc4ccc(C#CCCO)cc43)[C@@H](C(=O)NC[C@H](O)c3ccccc3)[C@H]12; t

**Q:** Reported z-score reaches at least -1 for CC(C)OC(=O)CC(=O)CC(O)c1cccc(C#N)c1 (stereo not drawn) ?
**A:** t

**Q:** Reported z-score reaches at least -1 for COc1ccc(C(O)C2C=CC3C(=O)N(C)C(=O)C3N2N2CCCCC2)cc1 (stereo not drawn) ?
**A:** f

**Q:** Reported z-score reaches at least -1 for [N-]=[N+]=Nc1ccccc1[C@H]1OC(c2ccc(OCCCO)cc2)=N[C@@]1(CCS(=O)(=O)c1ccccc1)C(=O)N1CCCCC1 ?
**A:** f
